Field: kcat. Provide a value for each of the variants that follow.
B1: glmS ribozyme (parent)
chain: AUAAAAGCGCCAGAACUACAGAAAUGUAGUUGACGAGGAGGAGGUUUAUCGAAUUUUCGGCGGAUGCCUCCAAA

# Variants of: B1
# ASSAY SUMMARY: kcat; higher = faster cleavage; RNA array
# MEASUREMENT CONDITIONS: with glucosamine-6-phosphate
This sample holds only a part of the variants without activity.
Numbers only, in s⁻¹.

Worked set:
>>> df
   variant_descriptor  unit_symbol  measured_value
0           C58U C67G          s⁻¹        3.65e-05
1      G29C A52U C70G          s⁻¹        2.41e-05
2           G13C A42G          s⁻¹         0.00017

For each listed entry, give its kcat.
1. G29U C68U
2. C11A U30A C50U
3. A39U A64G
4. C11U U46C
5. A15G G44U

OUTPUT:
[0.0008, "2.21e-05", 0.031, "7.67e-05", 0.00046]

For each listed entry, give its kcat.
1. C50U U55A
2. C16U U69A
3. G37A A48C

OUTPUT:
["8.88e-05", 0.000112, "1.56e-05"]

For each listed entry, give its kcat.
1. U47G C70A
2. G40U U47C
3. A48U C70G
4. A64G C70U
5. A52G G66U
6. U47A C58G
7. A14C G26A

OUTPUT:
[0.000101, 0.00133, "3.29e-05", 0.00369, 0.00018, 0.000134, 0.00194]
